B1: CCDC6 (parent)
chain: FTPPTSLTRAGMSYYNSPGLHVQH

Variants of: B1
Experiment: protein stability index of a GFP-peptide fusion (GPS, HEK-293T) (PSI 1-6); higher = more stable;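 also: lentivirally expressed fusions sorted by FACS into six bins by GFP to DsRed ratio, PSI derived from sequencing read proportions per bin multiplied by bin number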
Conditions: c terminus: a fixed tail appended
Each item that follows carries a reported protein stability index.
PARAMETER: protein stability index

1. P3S = 2.1
2. G19S = 1.73
3. S17C = 1.24
4. S13N = 1.77
5. N16H = 2.12
6. T5V = 2.01
7. T8M = 1.92
8. T5K = 1.54
9. G11I = 1.49
10. L20H = 1.72
11. H24F = 2.77
12. Y14R = 3.18
13. L20P = 1.67
14. G11T = 2.17
15. A10I = 1.75
16. N16S = 1.65
17. H21E = 2.75
18. L7P = 2.33
19. G19T = 1.86
20. Q23W = 3.23
21. Q23S = 1.43
22. Y14S = 2.46
